test system: S. typhimurium/E. coli reverse mutation, colony counts; experiment: Bacterial reverse mutation test (aka Ames test) summary data;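 further: His-minus Salmonella and trp-minus E. coli WP2 uvrA pKM101 with or without liver S9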
Inconclusive results are not listed. Activity calls are given as the source filed them. How the calls were made is not given here.
MEASURED PARAMETER: outcome

CC(=O)NNc1ccccc1 ... active; positive
C=Cc1ccccn1 ... active; positive
O=[N+]([O-])c1ccc(NCCO)c(OCCO)c1 ... active; positive
ClCCl ... active; positive
C=CCOCC1CO1 (stereo unspecified) ... active; positive
OCCCBr ... active; positive
CC1CCCC1 ... inactive; negative
CC[n+]1c(-c2ccccc2)c2cc(N)ccc2c2ccc(N)cc21 ... active; positive

Lab note: S. typhimurium/E. coli reverse mutation, colony counts assay, enter outcome for O=Cc1ccccc1Cl here
inactive; negative

Lab note: S. typhimurium/E. coli reverse mutation, colony counts assay, enter outcome for O=c1n(CC2CO2)c(=O)n(CC2CO2)c(=O)n1CC1CO1 (stereo unspecified) here
active; positive

Lab note: S. typhimurium/E. coli reverse mutation, colony counts assay, enter outcome for Cc1cc(-c2ccc(N=Nc3cc(S(=O)(=O)O)c4ccccc4c3N)c(C)c2)ccc1N=Nc1cc(S(=O)(=O)O)c2ccccc2c1N here
inactive; negative

Lab note: S. typhimurium/E. coli reverse mutation, colony counts assay, enter outcome for Oc1ccccc1O here
inactive; negative

Lab note: S. typhimurium/E. coli reverse mutation, colony counts assay, enter outcome for COc1ccc(OC)cc1 here
inactive; negative

Lab note: S. typhimurium/E. coli reverse mutation, colony counts assay, enter outcome for Nc1c2ccccc2nc2ccccc12 here
active; positive

Lab note: S. typhimurium/E. coli reverse mutation, colony counts assay, enter outcome for Oc1cccc(O)c1 here
inactive; negative

----------
tested on: S. typhimurium/E. coli reverse mutation, colony counts; experiment: Bacterial reverse mutation test (aka Ames test) summary data;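 further: His-minus Salmonella and trp-minus E. coli WP2 uvrA pKM101 with or without liver S9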
Records with an inconclusive call do not appear. Activity calls are given as the source filed them. How the calls were made is not given here.
The categories you may choose from are active, inactive

Test call, this compound: CCN(CC)C(=S)S[Te](SC(=S)N(CC)CC)(SC(=S)N(CC)CC)SC(=S)N(CC)CC
inactive

Test call, this compound: CCCCCCCC/C=C\CCCCCCCC(=O)OC
inactive

Test call, this compound: Nc1ccc(Sc2ccc(N)cc2)cc1
active

Test call, this compound: O=[N+]([O-])c1cccc(Cl)c1Cl
active

Test call, this compound: CCCCNC(=O)n1c(NC(=O)OC)nc2ccccc21
inactive

Test call, this compound: COc1c(C(C)(C)C)cc([N+](=O)[O-])c(C)c1[N+](=O)[O-]
inactive

Test call, this compound: Cc1c(C)c2c(c(C)c1OC(=O)CCC(=O)O)CC[C@@](C)(CCC[C@H](C)CCC[C@H](C)CCCC(C)C)O2
inactive

Test call, this compound: COc1cc(-c2ccc(N=Nc3cc(S(=O)(=O)O)c4ccccc4c3O)c(OC)c2)ccc1N=Nc1cc(S(=O)(=O)O)c2ccccc2c1N
inactive

Test call, this compound: Cc1cccc2c1ccc1ccccc12
active

Test call, this compound: O=[N+]([O-])c1ccc2c(c1)Cc1cccc([N+](=O)[O-])c1-2
active

Test call, this compound: CCCCOCCOCCO
inactive

Test call, this compound: CCC(C)O (stereo not drawn)
inactive

Test call, this compound: CC1=NN(c2ccccc2)C(=O)C1
inactive

Test call, this compound: CCCCCc1cc(O)cc(O)c1
inactive

Test call, this compound: C[N+](=O)[O-]
inactive

Test call, this compound: Nc1c(Cl)cc([N+](=O)[O-])cc1Cl
active

Test call, this compound: Nc1ccccc1C(=O)O
inactive

Test call, this compound: Nc1ccn([C@@H]2CS[C@H](CO)O2)c(=O)n1
inactive

Test call, this compound: COP(=S)(OC)SCn1nnc2ccccc2c1=O
active

Test call, this compound: O=C(Nc1ccc(Cl)cc1)Nc1ccc(Cl)c(Cl)c1
inactive

Test call, this compound: CCC(=O)O
inactive

Test call, this compound: CC(COC(=O)c1ccccc1)(COC(=O)c1ccccc1)COC(=O)c1ccccc1
inactive

Test call, this compound: N[C@@H](Cc1ccc(N(CCCl)CCCl)cc1)C(=O)O
active

Test call, this compound: Clc1c(Cl)c(Cl)c2c(c1Cl)Oc1c(Cl)c(Cl)c(Cl)c(Cl)c1O2
inactive

Test call, this compound: CCOC(C=C(C)CCC=C(C)C)OCC
active

Test call, this compound: Clc1c(Cl)c(Cl)c2ccccc2c1Cl
inactive

Test call, this compound: CC(=O)NNC(=O)c1ccccn1
inactive

Test call, this compound: N#CC(O)c1ccccc1 (stereo not drawn)
inactive

Test call, this compound: CC(CO)[N+](=O)[O-] (stereo not drawn)
inactive

Test call, this compound: O=[N+]([O-])C(Br)(CO)CO
inactive

Test call, this compound: N#CCO
inactive

Test call, this compound: O=C(O)C=Cc1ccc(O)c(O)c1
inactive

Test call, this compound: CC(=O)Nc1ccccc1N
active

Test call, this compound: CCCCCC
inactive

Test call, this compound: Cc1cccc(C#N)c1
inactive

Test call, this compound: N#CCCl
inactive

Test call, this compound: CCCBr
inactive

Test call, this compound: O=C(Cc1ccccc1)OCc1ccccc1
inactive

Test call, this compound: c1ccc(NNc2ccccc2)cc1
active

Test call, this compound: C=CCNC(=S)NCC=C
inactive

Test call, this compound: CCC(C(N)=O)(C(N)=O)c1ccccc1
active

Test call, this compound: CC(=O)c1cc(C)oc1C
active

Test call, this compound: Cc1coc2c1CCC(C)C2 (stereo not drawn)
inactive

Test call, this compound: O=C(O)c1cc(N=Nc2ccc([N+](=O)[O-])cc2)ccc1O
active

Test call, this compound: CCc1ccccc1O
inactive

Test call, this compound: CCN(CC)c1ccc(N)cc1
active

Test call, this compound: CCCCCCCCOC(=O)c1ccccc1C(=O)OCCCCCCCC
inactive

Test call, this compound: CC(C=O)=Cc1ccccc1
inactive

Test call, this compound: NC(=O)c1cnccn1
inactive

Test call, this compound: COC=O
inactive

Test call, this compound: Oc1c(I)cc(Cl)c2cccnc12
inactive

Test call, this compound: Nc1ccc(Cl)cc1N
active

Test call, this compound: OCc1ccccc1
inactive

Test call, this compound: ClC1=C(Cl)[C@]2(Cl)[C@@H]3[C@H]4C[C@H]([C@@H]5O[C@H]45)[C@@H]3[C@@]1(Cl)C2(Cl)Cl
inactive

Test call, this compound: CN(C)c1nc(N(C)C)nc(N(C)C)n1
inactive

Test call, this compound: CCCCOCCOCCSC#N
inactive

Test call, this compound: Nc1c(S(=O)(=O)O)cc(Nc2cccc(S(=O)(=O)CCOS(=O)(=O)O)c2)c2c1C(=O)c1ccccc1C2=O
active

Test call, this compound: ClC1(Cl)C2(Cl)C3(Cl)C4(Cl)C(Cl)(Cl)C5(Cl)C3(Cl)C1(Cl)C5(Cl)C24Cl (stereo not drawn)
inactive
